ASSAY_SYSTEM: Potassium channel subfamily K member 9 (Homo sapiens)
ASSAY_COMMENT: blockers of human TASK-3 (KCNK9) channel – HEK293 cells, thallium flux, primary screen (AID 488922)
DETAILS: HEK293 KCNK9, FluxOR thallium flux fluorescence, at 10 µM
Among all 310,000 compounds or so, about 3,800 (1.2%) were called active.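 The calls were made as follows: active = ratio B-score over 3 SD below the library mean, with starting fluorescence within 5 SD of its mean; inactive = the rest, inconclusive results apart.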 The sample as a whole holds a higher share of actives than the screen did.
A correct response names exactly one class from class 1 for active, class 0 for inactive

# example entries with known answers
COC(=O)C1C(=O)NCC1c1ccc(C)cc1 (stereo unspecified) | class 0
O=C(Nn1c(-c2ccc(Cl)cc2)nc2ccccc2c1=O)c1cccnc1Cl | class 0
COn1c(-c2ccc(Cl)cc2Cl)nc2ncccc21 | class 0

Challenge: Hi team, can someone confirm the assay call for Cc1c(NS(=O)(=O)c2ccc(NC3CCCC3)c([N+](=O)[O-])c2)c(=O)n(-c2ccccc2)n1C ?
Response given: class 0
